Biological target: ALK2/ACVR1 (Homo sapiens)
Sequence (Q04771 21-509): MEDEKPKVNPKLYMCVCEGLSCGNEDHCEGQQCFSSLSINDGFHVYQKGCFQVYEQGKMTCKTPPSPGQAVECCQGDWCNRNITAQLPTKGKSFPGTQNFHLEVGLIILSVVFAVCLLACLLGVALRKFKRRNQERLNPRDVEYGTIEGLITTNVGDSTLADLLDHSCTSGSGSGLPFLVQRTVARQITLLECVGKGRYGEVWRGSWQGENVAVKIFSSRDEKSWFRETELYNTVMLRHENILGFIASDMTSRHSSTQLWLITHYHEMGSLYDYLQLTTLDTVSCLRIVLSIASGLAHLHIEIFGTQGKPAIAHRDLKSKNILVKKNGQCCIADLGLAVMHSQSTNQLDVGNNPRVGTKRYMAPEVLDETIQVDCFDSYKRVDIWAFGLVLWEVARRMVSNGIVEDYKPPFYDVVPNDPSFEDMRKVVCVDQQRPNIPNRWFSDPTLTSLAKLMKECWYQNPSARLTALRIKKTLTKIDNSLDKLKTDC
Assay: Kinase assay (33P-ATP filter-binding), ALK2
Format: biochemical
Conditions: 20 mM; read-out: Kinase Selectivity ALK2/ACVR1 (20 mM)
Method: The kinase assays were carried out briefly as follows. Substrate was prepared in Base Reaction Buffer (20 mM Hepes (pH 7.5), 10 mM MgCl2, 1 mM EGTA, 0.02% Brij35, 0.02 mg/ml BSA, 0.1 mM Na3VO4, 2 mM DTT, 1% DMSO). The indicated kinases was delivered into the substrate solution and allowed to gently mix. […] After 2 hours, the reactions were spotted onto P81 ion exchange paper and the kinase activity is detected by the filter-binding method.
pIC50: −log10 of the molar value.
quantityKind: pIC50

a = CN1CCN(c2ccc(-c3ccn4c(-c5ccnc6ncccc56)cnc4c3)cc2)CC1 [Compound 29]
b = Cc1cc(-c2cnc3cc(-c4ccc(N5CCNC6(CCC6)C5)cc4)ccn23)c2cc(F)cc(F)c2n1 [Compound 4]
c = Cc1cc(-c2cnc3cc(-c4ccc(N5CCC6(CCNC6)CC5)cc4)ccn23)c2cc(F)cc(F)c2n1 [Compound 7]
d = Cc1cc(-c2cnc3cc(-c4ccc(N5CCNC(C)(C)C5)cc4)ccn23)c2cc(F)cc(F)c2n1 [Compound 26]
Order the 4 listed items from lowest to highest according to pIC50. Answer by listing the labels in the order asked for.
c, a, b, d
